Below are pIC50 values recorded for ADAMTS-4 (Agg-1) (Homo sapiens, UniProt O75173).
pIC50: −log10 of the molar value.
Recorded Endpoint: pIC50

Compound Structure String	pIC50
COc1cc(COc2ccc(-c3ccc(S(=O)(=O)N[C@@H](C(=O)O)C(C)C)cc3)cc2)cc(OC)c1	5.72
COc1ccc(COc2ccc(-c3ccc(S(=O)(=O)N[C@@H](C(=O)O)C(C)C)cc3)cc2)cc1	5.72

(I) Cc1cc(-c2ccc(COc3ccc4c(c3)CCCC4=O)cc2)ccc1S(=O)(=O)N[C@@H](C(=O)O)C(C)C
(II) CC(C)[C@@H](NS(=O)(=O)c1ccc(-c2ccc(COc3ccc(C(=O)N4CCCC4)cc3)cc2)cc1)C(=O)O
Would you mind telling me which has the lower recorded pIC50 between I and II ? State the label of the item chosen.
II

Hey, just so you know, these numbers are from patent US7390833B2.
